- experiment: Apparent permeability from apical to basolateral side of human Caco-2 cells after 120 mins
readout-kind: Papp A→B at 2 h (×10⁻⁶ cm/s)

Solved cases (6 shown):
compound	Papp A→B at 2 h / ×10⁻⁶ cm/s
CCC(C(=O)O)c1ccc2c(c1)N(CCCN1CCCN(c3cc(=O)n(C)c(=O)n3C)CC1)c1ccccc1S2 (stereo not given)	22.3
Cn1c(C2=CCN(CCCN3c4ccccc4Sc4ccc(CC(=O)O)cc43)CC2)cc(=O)n(C)c1=O	4.7
Cn1c(N2CCCN(CCCN3c4ccccc4Sc4c(C(=O)O)cccc43)CC2)cc(=O)n(C)c1=O	0.5
Cn1c(N2CCN(CCCN3c4ccccc4Sc4ccc(CCC(=O)O)cc43)CC2)cc(=O)n(C)c1=O	5.1
CN1CCC(=C2c3ccccc3CC(=O)c3sccc32)CC1.O=C(O)/C=C/C(=O)O [KETOTIFEN FUMARATE]	11.1
Cn1c(NCCCN2CCC(CN3c4ccccc4Sc4ccc(C(=O)O)cc43)CC2)cc(=O)n(C)c1=O	0.4

[I] Cn1c(N2CCCN(CCCN3c4ccccc4Sc4ccc(CC(=O)O)cc43)CC2)cc(=O)n(C)c1=O
[II] Cn1c(N2CCCN(CCCN3c4ccccc4Sc4ccc(OCC(=O)O)cc43)CC2)cc(=O)n(C)c1=O
[III] Cn1c(N2CCN(CCCN3c4ccccc4Sc4ccc(C(=O)O)cc43)CC2)cc(=O)n(C)c1=O
[IV] Cn1c(N2CCN(CCCCN3c4ccccc4Sc4ccc(C(=O)O)cc43)CC2)cc(=O)n(C)c1=O
## Input Sort these compounds on Papp A→B at 2 h so the largest reading comes first. Use the labels to give the requested order.
## Output IV, III, I, II

[a] Cn1c(NCCCN2CCC(Oc3ccc(Cl)c(Cl)c3)CC2)cc(=O)n(C)c1=O
[b] Cn1c(N2CCCN(CCCN3c4ccccc4Sc4ccc(/C=C\C(=O)O)cc43)CC2)cc(=O)n(C)c1=O
[c] Cn1c(N2CCN(CCCN3c4ccccc4Sc4ccc(CC(=O)O)cc43)CC2)cc(=O)n(C)c1=O
[d] CN(CCCN1CCC(CN2c3ccccc3Sc3ccc(C(=O)O)cc32)CC1)c1cc(=O)n(C)c(=O)n1C
## Input Arrange the 4 entries by Papp A→B at 2 h so the values rise. Use the labels to give the requested order.
## Output d, a, b, c

All figures here come from ChEMBL document CHEMBL1152910.
